System: TYK2(JH1domain-catalytic);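 also: KINOMEscan kinase panel screen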
Conditions: concentration: 1 μM, replicates: in singlicate; n = 1
Give MET when the value for %Inh is at least 20%. Give NOT MET when it is less.

Data request: // inclusive: %Inh at least 20%? input: "Nc1nccc2scc(-c3ccc4c(c3)CCN4C(=O)Cc3cc(F)ccc3F)c12"
Data returned: NOT MET

Data request: Also "Fc1ccc(-c2ncn(CCCNCc3ccccc3)c2-c2ccncc2)cc1" ?
Data returned: MET

Data request: Also CCCc1ccc(S(=O)(=O)NC2CCN(c3ccnc(Nc4ccc(OC)cc4)n3)C2)cc1 (stereo not shown) ?
Data returned: MET

Data request: Also "OCCOCCn1ccc2ncnc(Nc3ccc(Oc4cccc(Cl)c4)c(Cl)c3)c21" ?
Data returned: NOT MET

Data request: Also "Cc1ccc(O)cc1Nc1cc(C(F)(F)F)nc2ccc(-c3ccncc3)cc12" ?
Data returned: NOT MET

Data request: Also "Clc1ccc(-c2cc(-c3c[nH]nc3-c3ccccn3)ccn2)cc1" ?
Data returned: NOT MET

Data request: Also "COc1ccc(NC(=O)Nc2ccc(C)c(-c3ccc(C(=O)Nc4ccncc4)cc3)c2)cc1" ?
Data returned: NOT MET

Data request: Also "CN1c2ccc(-c3ccc(C(=O)NCCO)cc3)cc2-c2[nH]ncc2S1(=O)=O" ?
Data returned: MET

Data request: Also "Fc1cccc(COc2ccc(Nc3ncnc4cc[nH]c34)cc2Cl)c1" ?
Data returned: NOT MET

Data request: Also COc1ccc(Nc2nccc(N3CCC(NC(=O)Nc4ccc5c(c4)OCO5)C3)n2)cc1 (stereo not shown) ?
Data returned: MET

Data request: Also "Cc1ccc(NC(=O)c2cccc(C#N)c2)cc1-c1ccc(C(=O)Nc2ccncc2)cc1" ?
Data returned: NOT MET

Data request: Also "CCc1nc(-c2cccc(N(C)S(=O)(=O)c3ccccc3)c2)c(-c2ccnc(Nc3ccc(N4CCN(C(C)=O)CC4)nc3)n2)s1" ?
Data returned: NOT MET

Data request: Also "CS(=O)(=O)CCNCc1nc(-c2ccc3ncnc(Nc4ccc(OCc5cccc(F)c5)c(Cl)c4)c3c2)cs1.Cl" ?
Data returned: NOT MET
